# system-tested: SHP2-C SH2;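 further: peptide library displayed on the E. coli surface as eCPX fusions, selected cells deep-sequenced, score is each peptide's frequency after selection divided by its frequency in the input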
# procedure-details: SH2 binding enrichment of the phosphorylated peptide, bacterial display (enrichment ratio); higher = better substrate or ligand; peptides without Tyr show the background
Decide by SH2 binding enrichment: equal to or exceeding 0.7 means Criterion met, less means Criterion not met.

residues="VFDMLYQLANL [USP24_Y1087]" class_name="Criterion met"
residues="KEDPEYKKKFR [FAM161A_Y278_E273K]" class_name="Criterion met"
residues="KKHIPCREHKS [CSNK1G2_Y206_Y206C]" class_name="Criterion met"
residues="FGCTFYNQAIM [MCCC2_Y196_R193C]" class_name="Criterion not met"
residues="SEDSEYYRAFE [CASQ2_Y178_K180R]" class_name="Criterion not met"
residues="ISSLLYELLEE [TRPC6_Y896_R895L]" class_name="Criterion not met"
